B1: Poly(rC)-binding protein 1, residues 278 to 350; numbered along this chain, Q15365 (parent)
chain: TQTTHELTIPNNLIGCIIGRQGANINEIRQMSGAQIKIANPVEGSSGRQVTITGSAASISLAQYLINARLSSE

Variants of: B1
Assay: abundance fitness (aPCA) (normalised: wild type 0, dead -1); higher = more abundant; growth selection in yeast, the domain comes from the species named
Conditions: Homo sapiens
property_name: abundance fitness
Just the number.

Q: Record request: abundance fitness value, item `T3H`
Ans: 0.147

Q: Need abundance fitness, item `E27N`
Ans: 0.08
